- Protocol Details: Mean residence time in po dosed mouse administered as cassette dose
- Assay type: ADME, organism-based
- Details: in vivo
Measured MRT, listed per entry.
Measurement Name: MRT

OCc1nnc(-c2ccc(N3CCC(c4ccc(C(F)(F)F)cc4)(C(F)(F)F)CC3)nn2)s1 ... 4.1 h
OCc1nsc(-c2ccc(N3CCC(c4ccc(C(F)(F)F)cc4)(C(F)(F)F)CC3)nn2)n1 ... 4.2 h
OCc1nnc(-c2ccc(N3CCC(c4ccc(C(F)(F)F)cc4)(C(F)(F)F)CC3)nn2)o1 ... 4.2 h
OCc1noc(-c2ccc(N3CCC(c4ccc(C(F)(F)F)cc4)(C(F)(F)F)CC3)nn2)n1 ... 3.2 h

====

- Protocol Details: Stability in human liver microsomes
- Assay type: ADME, microsome
- Details: read-out: Stability
Could you mark each record class 1 if its microsomal CLint falls strictly under 10 µL/min/mg, and class 0 if it equals or exceeds it?

N#CC1(c2ccc(S(F)(F)(F)(F)F)cc2)CCN(c2ccc(-c3nc(CO)no3)nn2)CC1 ... class 1
OCc1noc(-c2ccc(N3CCC(c4ccc(C(F)(F)F)cc4)(C(F)(F)F)CC3)nn2)n1 ... class 0
N#CC1(c2ccc([N+](=O)[O-])cc2)CCN(c2ccc(-c3nc(CO)no3)nn2)CC1 ... class 1
OCc1nnc(-c2ccc(N3CCC(c4ccc(C(F)(F)F)cc4)(C(F)(F)F)CC3)nn2)o1 ... class 0
N#CC1(c2ccc(C(F)(F)F)cc2)CCN(c2ccc(-c3nc(CO)no3)nn2)CC1 ... class 1

====

- Experimental System: Stearoyl-CoA desaturase (Homo sapiens, UniProt O00767)
- Sequence (O00767 whole entry): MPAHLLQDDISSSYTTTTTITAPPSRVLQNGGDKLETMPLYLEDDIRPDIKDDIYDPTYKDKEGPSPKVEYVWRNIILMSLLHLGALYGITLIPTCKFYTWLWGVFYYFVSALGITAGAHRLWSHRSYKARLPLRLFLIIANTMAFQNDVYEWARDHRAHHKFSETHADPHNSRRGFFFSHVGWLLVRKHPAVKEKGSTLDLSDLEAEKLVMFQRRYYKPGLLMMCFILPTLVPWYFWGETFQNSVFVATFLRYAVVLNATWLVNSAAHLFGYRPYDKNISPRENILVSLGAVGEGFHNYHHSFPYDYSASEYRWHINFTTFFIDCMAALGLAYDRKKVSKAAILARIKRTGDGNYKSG
- Protocol Details: Displacement of (5-(6-(10H-spiro(1-benzofuran-3,30-pyrrolidin)-10-yl)pyridazin-3-yl)-1,2,4-oxadiazol-3-yl)[3H2]methanol from SCD1 in human liver microsomes after 120 mins TopCount liquid scintillation counting method
pIC50: −log10 of the molar value.
Threshold rule: pIC50 greater than or equal to 7 is T; below that, F.

OCc1nsc(-c2ccc(N3CCC(c4ccc(C(F)(F)F)cc4)(C(F)(F)F)CC3)nn2)n1 ... T
OCc1nnc(-c2ccc(N3CCC(c4ccc(C(F)(F)F)cc4)(C(F)(F)F)CC3)nn2)o1 ... T
N#CC1(c2ccc(C(F)(F)F)cc2)CCN(c2ccc(-c3nc(CO)no3)nn2)CC1 ... T
OCc1nnc(-c2ccc(N3CCC(c4ccc(C(F)(F)F)cc4)(C(F)(F)F)CC3)nn2)s1 ... T
CC(C)(C)c1ccc(C2(C#N)CCN(c3ccc(-c4nc(CO)no4)nn3)CC2)cc1 ... T
N#CC1(c2ccc(S(F)(F)(F)(F)F)cc2)CCN(c2ccc(-c3nc(CO)no3)nn2)CC1 ... T
OCc1noc(-c2ccc(N3CCC(c4ccccc4)(C(F)(F)F)CC3)nn2)n1 ... T
NC1(c2ccccc2)CCN(c2ccc(-c3nc(CO)no3)nn2)CC1 ... F
N#CC1(c2ccccc2)CCN(c2ccc(-c3nc(CO)no3)nn2)CC1 ... F
OCc1noc(-c2ccc(N3CCC(c4ccc(C(F)(F)F)cc4)(C(F)(F)F)CC3)nn2)n1 ... T
N#CC1(c2ccc(Cl)cc2)CCN(c2ccc(-c3nc(CO)no3)nn2)CC1 ... T
N#CC1(c2ccc(OC(F)(F)F)cc2)CCN(c2ccc(-c3nc(CO)no3)nn2)CC1 ... T
N#CC1(c2cccc(Cl)c2)CCN(c2ccc(-c3nc(CO)no3)nn2)CC1 ... T
